Listed next: entries and their corresponding pEC50.
target: Human TREM2 (Homo sapiens, UniProt Q9NZC2); construct: expressed in transfected cells; experiment: Human TREM2 activity: cellular phosphorylation of Syk (AlphaLISA SureFire Ultra p-SYK) in HEK293/DAP12+TREM2 stable cell line; type: cell-based; conditions: phospho-Syk AlphaLISA signal, HEK293/DAP12+TREM2 cells; concentration giving 50% of maximal response; read-out: EC50
Sequence (Q9NZC2 19-230): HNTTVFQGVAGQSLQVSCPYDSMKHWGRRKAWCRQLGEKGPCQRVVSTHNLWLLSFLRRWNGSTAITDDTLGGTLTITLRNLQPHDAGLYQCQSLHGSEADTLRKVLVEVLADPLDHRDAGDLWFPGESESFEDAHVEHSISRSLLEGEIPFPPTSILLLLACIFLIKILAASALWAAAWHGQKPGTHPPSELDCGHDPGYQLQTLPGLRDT
Sequence (O43914 22-113 partner): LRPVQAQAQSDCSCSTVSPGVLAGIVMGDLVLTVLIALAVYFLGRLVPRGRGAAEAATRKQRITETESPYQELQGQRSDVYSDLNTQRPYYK
pEC50: −log10 of the molar value.

Example compounds with recorded pEC50:
[[record]]
compound = "Cc1nc2c(-c3ccc(Cl)cc3F)nc(N3C[C@@H](c4cnn(C)c4)OC4(CCC4)C3)nc2c(=O)n1C (single isomer, unassigned) [Example 109A]"
result = "8.00 to 9.00"

[[record]]
compound = "Cc1nc2c(-c3ccc(Cl)cc3F)nc(N3C[C@@H](c4cnn(C)c4)OC4(CCC4)C3)cc2c(=O)n1C (single isomer, unassigned) [Example 151A]"
result = "8.00 to 9.00"

[[record]]
compound = "Cc1nc2c(-c3ccc(Cl)cc3F)nc(N3CCC(Oc4cnn(C)c4)CC3)nc2c(=O)n1C"
result = "< 6.00"

[[record]]
compound = "Cc1nc2c(-c3ccc(F)cc3Cl)nc(N3CCOC(c4cnn(C)c4)C3)nc2c(=O)n1C (stereo not drawn)"
result = "< 6.00"

[[record]]
compound = "Cc1cc([C@@H]2CN(c3cc4c(=O)n(C)c(C)nc4c(-c4ccc(C(F)F)nc4)n3)CC(F)(F)O2)ccn1 (single isomer, unassigned) [Example 181A]"
result = "7.00 to 8.00"


Consider the additional compound presented here.
Prompt line: Suppose we examine the compound Cc1cc([C@@H]2CN(c3cc4c(=O)n(C)c(C)nc4c(-c4cc(F)c(F)cc4F)n3)CCO2)ccn1 (single isomer, unassigned) [Example 141A] ; what pEC50 value has been reported?
Response line: 7.00 to 8.00

----------
target: Human TREM2 (Homo sapiens); construct: expressed in transfected cells; experiment: Human TREM2 activity: cellular phosphorylation of Syk (AlphaLISA SureFire Ultra p-SYK) in HEK293/DAP12+TREM2 stable cell line; type: cell-based; conditions: phospho-Syk AlphaLISA signal, HEK293/DAP12+TREM2 cells; concentration giving 50% of maximal response; read-out: EC50
Examples of compounds with documented EC50 follow.

Example cases with answers are listed next.
[[record]]
compound = "Cc1nc2c(-c3ccc(Cl)cc3F)nc([C@H]3CCO[C@@H](c4cnn(C)c4)C3)nc2c(=O)n1C (single isomer, unassigned) [Example 68]"
result = "> 1000 nM"

[[record]]
compound = "Cc1cc([C@@H]2CN(c3cc4c(=O)n(C)c(C)nc4c(-c4ccc(C(F)F)nc4)n3)CC(C)(C)O2)ccn1 (single isomer, unassigned) [Example 180A]"
result = "> 1000 nM"

[[record]]
compound = "Cc1nc2c(-c3ccc(Cl)cc3F)nc(N3CC(c4cnn(C)c4)OC(F)(F)C3)nc2c(=O)n1C (stereo not drawn) [Example 115]"
result = "1 to 10 nM"

[[record]]
compound = "C[C@@H]1CN(c2cc3c(=O)n(C)c(C(F)(F)F)nc3c(-c3ccc(F)cc3F)n2)C[C@H](c2cnn(C3CC3)c2)O1 (single isomer, unassigned) [Example 193B]"
result = "10 to 100 nM"


Prompt line: // query EC50 value for entry Cn1c(C(F)(F)F)nc2c(-c3ccc(F)cc3F)nc([C@H]3CCO[C@@H](c4cnn(C5CC5)c4)C3)nc2c1=O (single isomer, unassigned) [Example 196B]
Response line: 10 to 100 nM

Prompt line: Thanks! And Cc1cc([C@@H]2CN(c3nc(-c4ccc(F)cc4F)c4nc(C(F)(F)F)n(C)c(=O)c4c3F)CCO2)ccn1 (single isomer, unassigned) [Example 174A] ?
Response line: 10 to 100 nM

Prompt line: Another compound to check: Cc1nc2c(-c3cc(F)c(F)cc3F)nc([C@H]3CCO[C@@H](c4cnn(C5CC5)c4)C3)nc2c(=O)n1C (single isomer, unassigned) [Example 97B]
Response line: > 1000 nM

Prompt line: Okay, and Cc1nc2c(-c3ccc(C(F)(F)F)cc3F)nc(N3CCO[C@@H](c4cnn(C5CC5)c4)C3)nc2c(=O)n1C (single isomer, unassigned) [Example 20B] ?
Response line: 1 to 10 nM

Prompt line: Same read-out for Cc1cc([C@@H]2CN(c3nc(-c4ccc(F)cc4F)c4nc(C)n(C)c(=O)c4n3)CC(F)(F)O2)ccn1 (single isomer, unassigned) [Example 169A] ?
Response line: < 1 nM
